Test system: Schistosoma mansoni
Test: MMV: Motility assay. Percent change (relative to DMSO controls) @ 5 uM of movement of 4-5 Schistosoma mansoni adult males after 48 h as measured by the Consensus Voting Luminance Difference algorithm available on WormAssay (PMID:22303493). Occasional incongruence ocurrs between the motility scores and the visually adjudicated 'toxicity scores'. In these cases the 'toxicity score' should be prioritized. Only those Malaria box 'Drug-like' cpds yielding the most severe phenotypes vs. somules were tested. Caffrey group UCSF.
Type: functional
Property name: Motility
Lab note: record just the number, no unit beside it.

COc1cccc(O)c1CN1CCC2(CCCN(Cc3ccc(F)cc3)C2)C1 (stereo not drawn)	133.2
O=C(Nc1cccc(C(F)(F)F)c1)c1cc(Cl)ccc1O	0.4
CNCCCNc1ccnc2cc(Cl)ccc12	116.2
O=C(NC(c1ccccc1)c1ccc2cccnc2c1O)c1ccccc1 (stereo not drawn)	16.1
COc1ccc(Nc2nc(NCc3ccccc3)c3ccccc3n2)cc1	105.7
CN(C)CCCNCc1ccc(-c2ccc(F)c(Cl)c2)o1.Cl	62.2
O=C(O)C(=O)O.Oc1ccc(Br)cc1CN1CCN(Cc2cccc(F)c2)CC1	202.5
Cc1cc(N2CCCC2)nc(Nc2ccc(NC(=O)CCc3ccccc3)cc2)n1	104.8
COc1ccc2nc(C)cc(Nc3ccc(Cl)cc3)c2c1	87.4
CCn1nc(-c2ccc(C(=O)OC)cc2)nc2c(=O)n(C)c(=O)nc1-2	97

Could you now consider this next compound?
Annotate the compound CCN(CC)CCNc1ncnc2c1[nH]c1ccc(Br)cc12 with its measured Motility. 119

====

System: Schistosoma mansoni
Assay type: functional
Parameters: scale not given here
Property name: Toxicity
Lab note: record just the number, no unit beside it.

COc1ccc(NC(=O)C2c3ccccc3C(=O)N(CC(C)C)C2c2cccs2)cc1Cl (stereo not given)	0
COc1ccc(CNC(=O)c2cc3c(=O)n4ccccc4nc3n(CCc3ccccc3)c2=N)cc1	1
Cc1cc(N(C)C)nc(Nc2ccc(NC(=O)Nc3ccccc3)cc2)n1	0
Cc1cccc(N2C(=O)C3C(C2=O)C2(c4ccccc4)C(=O)C3(c3ccccc3)C(c3ccc4c(c3)OCO4)=C2c2ccc3c(c2)OCO3)c1 (stereo not given)	0

Could you now consider this next compound?
Annotate the compound CC(C)(C)c1ccc(C2CC3=Nc4ccccc4N(C(=O)c4ccccc4Cl)C(c4ccc(F)cc4)C3=C(O)C2)cc1 (stereo not given) with its measured Toxicity. 1

====

System: Schistosoma mansoni
Type: functional
Parameters: scale not given here
Form field: Toxicity (one value per entry).

Study these solved cases before continuing.
CCN1CCN(Cc2ccc(NC(=O)c3cc4ccc5cccnc5c4[nH]3)cc2)CC1	0
COc1cccc(C2(C)Nc3ccccc3-c3nc4ccccc4n32)c1 (stereo not given)	0
CC(NCc1ccccc1)c1cc(Cl)ccc1O (stereo not given)	2

Annotate the molecule COc1cc2cc(C(=O)Nc3ccccc3)c(N)nc2cc1OC with its measured Toxicity. 0

Annotate the molecule Cc1cc(C=C2SC(=Nc3ccccc3)N(C3CCCC3)C2=O)c(C)n1-c1ccc(Cl)cc1 with its measured Toxicity. 0

====

Form field: Toxicity (one value per entry).
Test system: Schistosoma mansoni
Type: functional
Parameters: scale not given here
Lab note: record just the number, no unit beside it.

Study these solved cases before continuing.
CCc1ccc(CNCC(O)c2ccccc2)cc1.Cl (stereo unspecified)	1
Cc1sc2ncnc(Sc3nc4ccccc4[nH]3)c2c1C	1
Cc1ccc(N2C(=O)C3C(C2=O)C2(c4ccccc4)C(=O)C3(c3ccccc3)C(c3ccccc3)=C2c2ccccc2)cc1 (stereo unspecified)	1
CC(C)(C)c1ccc2c(c1)CN(Cc1ccc(Cl)cc1)CO2	0
CCCc1c(CC)c(=N)c2ccccc2n1C	1
CCN1CCCC1CNc1[nH]cnc2c3cc(Cl)ccc3nc1-2 (stereo unspecified)	0

Annotate the compound COc1ccc(C=C2SC(Nc3ccc(F)cc3)=NC2=O)c(OC)c1 with its measured Toxicity. 0

Annotate the compound CCOC(=O)c1cnc2ccc(CC)cc2c1O with its measured Toxicity. 0

Annotate the compound CCCCOc1ccc(C(=O)Nc2cc(C)on2)cc1 with its measured Toxicity. 0

====

Form field: Toxicity (one value per entry).
System: Schistosoma mansoni
Assay type: functional
Set-up: scale not given here
Lab note: record just the number, no unit beside it.

Provide measured Toxicity on Schistosoma mansoni for COc1ccc(Nc2cc(C)nc(NCc3ccccc3)n2)cc1 please. 2

Provide measured Toxicity on Schistosoma mansoni for O=C(NCc1ccco1)C1CCN(S(=O)(=O)c2ccc(Cl)cc2)CC1 please. 0

Provide measured Toxicity on Schistosoma mansoni for OC1=C2C(=Nc3ccccc3SC2c2ccc(Br)cc2)c2ccccc21 (centres undefined) please. 1

Provide measured Toxicity on Schistosoma mansoni for OC(CNC1CCCCC1)Cn1c2ccccc2c2ccccc21 (centres undefined) please. 0

Provide measured Toxicity on Schistosoma mansoni for CCN(CC)CCCNc1ccnc2cc3ccccc3cc12 please. 2

====

Form field: Toxicity (one value per entry).
Test system: Schistosoma mansoni
Assay type: functional
Parameters: scale not given here
Lab note: record just the number, no unit beside it.

CNCCCNc1ccnc2cc(Cl)ccc12	2
Cc1ccccc1OCCSc1nc2ccc(NC(=O)c3ccccc3)cc2s1	0
COc1ccc(Nc2nc(NCc3ccccc3)c3ccccc3n2)cc1	2
Nc1ccc(-c2nc3cc(Cc4ccc5[nH]c(-c6ccc(N)cc6)nc5c4)ccc3[nH]2)cc1	1
COc1ccc(NC(=O)C2c3ccccc3C(=O)N(CC(C)C)C2c2cccs2)cc1 (stereo not given)	1
CCOc1c(Br)cc(C2C(C(=O)OC)=CN(C)C=C2C(=O)OC)cc1OC	0
O=C(Nc1nc(-c2ccccn2)cs1)c1ccccc1Br	2
CCCCOC(=O)c1ccc(Nc2cc(C)nc3ccc(OC)cc23)cc1	2

Annotate the molecule COc1ccc(CNC2CCN(c3ccc(NC(=O)c4cccc(Cl)c4)cc3)CC2)cc1OC with its measured Toxicity. 2

Annotate the molecule CCOC(=O)C1(Cc2ccccc2)CCN(Cc2cccc(OC)c2O)CC1 with its measured Toxicity. 1

====

Test system: Schistosoma mansoni
Format: functional
Design: scale not given here
Property name: Toxicity
Lab note: record just the number, no unit beside it.

Study these solved cases before continuing.
COC(=O)c1ccc(C2C3=C(O)CC(c4ccc(F)cc4)CC3=Nc3ccccc3N2C(=O)c2ccccc2)cc1 (stereo not given)	0
CN(C)CCCNCc1ccc(-c2ccc(F)c(Cl)c2)o1.Cl	2
OCCNc1nc(Nc2ccc(Cl)c(Cl)c2)nc2ccccc12	2

Annotate the compound O=C(O)C(=O)O.Oc1ccccc1CN1CCN(C(c2ccccc2)c2ccccc2)CC1 with its measured Toxicity. 0

Annotate the compound CCCCCCc1cc(O)c2c3c(c(=O)oc2c1)CCC(C)C3 (stereo not given) with its measured Toxicity. 0

Annotate the compound Cc1ccc(-c2cc(C(=O)Nc3ccc(S(=O)(=O)N4CCCCC4)cc3)[nH]n2)c(O)c1 with its measured Toxicity. 0

Annotate the compound COc1cccc(NC(=O)[C@H](C(C)C)n2c(=O)[nH]c3ccccc3c2=O)c1 with its measured Toxicity. 0

Annotate the compound COc1ccccc1CNC(=O)CCn1c(=O)[nH]c2ccccc2c1=O with its measured Toxicity. 0

Annotate the compound COCCNCC(O)Cn1c2ccc(Cl)cc2c2cc(Cl)ccc21 (stereo not given) with its measured Toxicity. 4

Annotate the compound COc1ccc2nc(C)cc(Nc3cccc(O)c3)c2c1.Cl with its measured Toxicity. 2

Annotate the compound Oc1ccc(Br)cc1CN1CCN(Cc2ccc(Cl)cc2)CC1 with its measured Toxicity. 1

Annotate the compound Cc1cc(NCCN2CCCCC2)c2ccc3ccccc3c2n1 with its measured Toxicity. 4

Annotate the compound Cl.Cn1c(=O)n(C)c2cc(CNCCNc3ccnc4cc(Cl)ccc34)ccc21 with its measured Toxicity. 0

Annotate the compound OC(CNC1CCCC1)Cn1c2ccccc2c2ccccc21 (stereo not given) with its measured Toxicity. 1

Annotate the compound OC(Cn1nnc2ccccc21)Cn1c2ccc(Br)cc2c2cc(Br)ccc21 (stereo not given) with its measured Toxicity. 0

Annotate the compound CCN(CC)c1ccc(NC(=O)c2cccs2)cc1 with its measured Toxicity. 0

Annotate the compound CCOc1ccc(Nc2ccnc3cc(Cl)ccc23)cc1 with its measured Toxicity. 2

Annotate the compound COc1cc(-c2nc(-c3ccccc3)c(-c3ccccc3)[nH]2)cc(OC)c1O with its measured Toxicity. 0

Annotate the compound Nc1nc(Nc2cccc(F)c2)nc2ccccc12 with its measured Toxicity. 0

Annotate the compound CC(=O)NCCc1nc2ccccc2n1Cc1ccc(C(C)C)cc1 with its measured Toxicity. 0

Annotate the compound COc1ccc(C2=C(c3ccc(OC)cc3)C3(c4ccccc4)C(=O)C2(c2ccccc2)C2C(=O)N(c4ccc(C)cc4)C(=O)C23)cc1 (stereo not given) with its measured Toxicity. 0

====

Test system: Schistosoma mansoni
Type: functional
Set-up: scale not given here
Property name: Toxicity
Lab note: record just the number, no unit beside it.

Annotate the compound O=C(Nc1ccc(C23CC4CC(CC(c5ccccc5)(C4)C2)C3)cc1)c1cccs1 with its measured Toxicity. 2

Annotate the compound Cc1c(C)n(CC(O)CNC2CCCCC2C)c2ccccc12 (stereo not drawn) with its measured Toxicity. 0

Annotate the compound CCCCCCc1cc2cc(-c3csc(C=Cc4ccccc4)n3)c(=O)oc2cc1O with its measured Toxicity. 0

Annotate the compound CN1CCN(c2c3c(c(C#N)c4nc5ccccc5n24)CCC3)CC1 with its measured Toxicity. 0

Annotate the compound COc1cc(CNCCc2ccc(Cl)cc2)cc(OC)c1O with its measured Toxicity. 0

Annotate the compound Cc1ccc2cc3c(N)c4c(C)ccc(C)c4nc3nc2c1 with its measured Toxicity. 0

Annotate the compound COc1cc(OC)c(N(C)C(=O)c2cc3c(s2)-c2ccccc2S(=O)(=O)C3)cc1Cl with its measured Toxicity. 0

Annotate the compound Nc1ccc(-c2nc3cc(Oc4ccc(Oc5ccc6[nH]c(-c7ccc(N)cc7)nc6c5)cc4)ccc3[nH]2)cc1 with its measured Toxicity. 0

Annotate the compound Cc1ccc(-c2cc3c(nn2)-c2ccccc2C3=O)cc1 with its measured Toxicity. 0

Annotate the compound COc1cc(C(=O)ON=C(N)Cc2cccc3ccccc23)cc(OC)c1OC with its measured Toxicity. 0

Annotate the compound O=C(Nc1ccc(N2CCN(Cc3ccccc3)CC2)cc1)c1cccs1.O=C(O)C(F)(F)F with its measured Toxicity. 0

These entries and their values trace back to ChEMBL document CHEMBL2363022.
